- Test system: E. coli (NCTC 10418)
- assay.method.text: In vitro antibacterial activity, MIC against E. coli (NCTC 10418)
- Assay type: cell-based
- setup.conditions: Escherichia coli, NCTC10418, E. coli (NCTC 10418), read-out: MIC
Structures can show the parent of a compound that is named as a salt.
outcome.measure: MIC

Requested field: MIC. Item: Nc1nc(/C(=N/OCC(=O)O)C(=O)N[C@@H]2C(=O)N3C(C(=O)O)=C(CSC4=CC(=O)OC4)CS[C@H]23)cs1 [Example 16, disodium salt]
< 0.06 µg/mL

Requested field: MIC. Item: Cc1cc(SCC2=C(C(=O)O)N3C(=O)[C@@H](NC(=O)/C(=N\O)c4csc(N)n4)[C@H]3SC2)cc(=O)o1 [Example 17]
0.06 µg/mL

Requested field: MIC. Item: CO/N=C(\C(=O)N[C@@H]1C(=O)N2C(C(=O)[O-])=C(SCC3=CCOC3=O)CS[C@H]12)c1csc(N)n1.[Na+] [Example 7]
< 0.03 µg/mL

Requested field: MIC. Item: CO/N=C(\C(=O)N[C@@H]1C(=O)N2C(C(=O)O)=C(CSc3ccoc(=O)c3)CS[C@H]12)c1csc(N)n1 [Example 15]
< 0.03 µg/mL

Requested field: MIC. Item: CO/N=C(\C(=O)N[C@@H]1C(=O)N2C(C(=O)[O-])=C(CSC3=C(Cl)C(=O)OC3)CS[C@H]12)c1csc(N)n1.[Na+] [Example 13]
< 0.03 µg/mL

Requested field: MIC. Item: CO/N=C(\C(=O)N[C@@H]1C(=O)N2C(C(=O)O)=C(Sc3cc(C)oc(=O)c3)CS[C@H]12)c1csc(N)n1 [Example 4]
0.25 µg/mL

----------
- Tested on: E. coli (NCTC 10418)
- assay.method.text: In vitro antibacterial activity, MIC against E. coli (NCTC 10418)
- Type: cell-based
- setup.conditions: Escherichia coli, NCTC10418, E. coli (NCTC 10418), read-out: MIC
outcome.measure: MIC (µg/mL)
A number alone suffices; assume µg/mL.

Requested field: MIC. Item: `Nc1nc(/C(=N/O)C(=O)N[C@@H]2C(=O)N3C(C(=O)O)=C(SCC4=CC(=O)OC4)CS[C@H]23)cs1`
0.12

Requested field: MIC. Item: CO/N=C(\C(=O)N[C@@H]1C(=O)N2C(C(=O)[O-])=C(SC3CCOC3=O)CS[C@H]12)c1csc(N)n1.[Na+] (stereo partly drawn)
0.12

Requested field: MIC. Item: `CO/N=C(\C(=O)N[C@@H]1C(=O)N2C(C(=O)[O-])=C(OCC3=CC(=O)OC3)CS[C@H]12)c1csc(N)n1.[Na+]`
0.06

Requested field: MIC. Item: `CO/N=C(\C(=O)N[C@@H]1C(=O)N2C(C(=O)O)=C(SC3=CC(=O)OC3)CS[C@H]12)c1csc(N)n1`
0.12

Requested field: MIC. Item: `Nc1nc(/C(=N/O)C(=O)N[C@@H]2C(=O)N3C(C(=O)O)=C(SCC4=CCOC4=O)CS[C@H]23)cs1`
0.12

Cited source for all entries: patent US5158946A
